Every entry's value here was drawn from paper PMC7709139.

# MEASUREMENT TARGET: hepatocyte growth factor tyrosine kinase receptor (Met) (human (endogenous in MKN-45 and U87-MG), UniProt P08581 25-1390)
# Sequence (P08581 25-1390): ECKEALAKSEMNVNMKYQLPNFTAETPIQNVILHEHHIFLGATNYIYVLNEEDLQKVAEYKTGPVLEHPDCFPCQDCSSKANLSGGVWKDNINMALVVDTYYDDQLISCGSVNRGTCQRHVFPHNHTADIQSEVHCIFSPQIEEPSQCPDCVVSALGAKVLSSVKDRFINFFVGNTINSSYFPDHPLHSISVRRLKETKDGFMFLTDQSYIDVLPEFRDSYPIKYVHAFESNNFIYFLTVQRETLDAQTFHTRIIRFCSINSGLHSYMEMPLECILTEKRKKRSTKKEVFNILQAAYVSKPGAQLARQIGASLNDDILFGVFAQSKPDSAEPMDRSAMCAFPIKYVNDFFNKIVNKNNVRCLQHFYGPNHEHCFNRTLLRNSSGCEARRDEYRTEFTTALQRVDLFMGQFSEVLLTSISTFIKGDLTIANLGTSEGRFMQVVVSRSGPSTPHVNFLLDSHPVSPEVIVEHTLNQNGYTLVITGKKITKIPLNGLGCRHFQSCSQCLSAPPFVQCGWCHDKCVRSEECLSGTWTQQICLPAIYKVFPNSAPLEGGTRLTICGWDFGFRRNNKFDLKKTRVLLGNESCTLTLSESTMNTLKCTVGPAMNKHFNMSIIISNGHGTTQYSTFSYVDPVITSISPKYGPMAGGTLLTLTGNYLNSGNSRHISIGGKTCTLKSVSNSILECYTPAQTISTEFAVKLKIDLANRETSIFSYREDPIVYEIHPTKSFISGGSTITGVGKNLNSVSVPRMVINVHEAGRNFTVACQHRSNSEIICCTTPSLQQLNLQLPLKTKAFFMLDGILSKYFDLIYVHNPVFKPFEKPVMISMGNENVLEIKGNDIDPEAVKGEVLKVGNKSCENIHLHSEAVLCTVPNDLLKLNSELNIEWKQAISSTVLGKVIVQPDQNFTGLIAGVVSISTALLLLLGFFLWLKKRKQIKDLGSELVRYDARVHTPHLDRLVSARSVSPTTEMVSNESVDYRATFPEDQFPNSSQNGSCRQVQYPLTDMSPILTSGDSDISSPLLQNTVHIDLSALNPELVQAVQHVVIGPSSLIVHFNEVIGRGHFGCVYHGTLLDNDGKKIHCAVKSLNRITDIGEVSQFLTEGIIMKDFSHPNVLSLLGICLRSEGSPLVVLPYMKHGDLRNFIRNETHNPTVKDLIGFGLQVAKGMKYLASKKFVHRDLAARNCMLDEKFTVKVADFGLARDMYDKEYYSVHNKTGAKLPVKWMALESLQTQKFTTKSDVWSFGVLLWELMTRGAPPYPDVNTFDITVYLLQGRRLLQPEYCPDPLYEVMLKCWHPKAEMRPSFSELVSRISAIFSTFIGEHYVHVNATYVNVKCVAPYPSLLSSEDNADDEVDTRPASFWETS
# TEST PROTOCOL: radioligand binding
Bridge positions count the residues as written; N and C are the ends. Ends that are not written are not given here.
VALUE TYPE: pKd
Schema: pKd number; meaning minus log10 of the concentration expressed in molar units.

Problem: Recorded pKd of Ac-AGSCYCSGPPRFECWCYETEGTGGGK(cPn216) (disulfide 6-14, 4-16; also: 99mTc chelated by cPn216) [[^99mTc]-Met peptide (AH-113018)] , please.
Solution: 8.48
